- PROTOCOL DESCRIPTION: MELAS cybrid and Rieske KO viability enhancers – cell-based, MELAS cybrids, Rieske KO mouse fibroblasts, CellTiter-Glo, primary screen (AID 1508586); note: test concentration not given here
- TEST SETTINGS: Rieske KO mouse fibroblast survival, low glucose, CellTiter-Glo 72 h
Cut-off -0.07 on z-score, inclusive. At or above means Yes; below means No.

[[record]]
compound = "N#CC(=Cc1ccc(O)c(O)c1)C(=O)NCc1ccccc1"
label = "Yes"

[[record]]
compound = "CC1=C(C(=O)N2CC(=O)N(CC(C)C)CC(OCc3ccccc3)C2)OCCO1 (stereo not drawn)"
label = "No"

[[record]]
compound = "CCc1nc(NC(=O)NCCc2nc(-c3ccc(C)cc3)no2)nn1C"
label = "No"

[[record]]
compound = "Cc1c(CN2CCN(C(=O)C(C)O)CC2)sc2c(N3CCOCC3)nc(-c3cnc(N)nc3)nc12 (stereo not drawn)"
label = "No"

[[record]]
compound = "CCC(C)(C)C(=O)OC1CC(C)C=C2C=CC(C)C(CC[C@@H]3CC(O)CC(=O)O3)[C@H]21 (stereo partly drawn)"
label = "No"

[[record]]
compound = "Cc1cnc(CNC(=O)c2cc(-c3ccccc3)cc(S(=O)(=O)N3CCN(C)CC3)c2)cn1"
label = "No"

[[record]]
compound = "C=C1C(=CC=C2CCC[C@]3(C)C(C(C)CCCC(C)C)CC[C@@H]23)CC(O)CC1O (stereo partly drawn)"
label = "Yes"

[[record]]
compound = "CC(C)(C)C(=O)OCOC(=O)[C@@H]1N2C(=O)[C@@H](N=CN3CCCCCC3)[C@H]2SC1(C)C"
label = "No"

[[record]]
compound = "CC(C)=CCC[C@](C)(OC1OC(COC2OCC(O)C(O)C2O)C(O)C(O)C1O)C1CC[C@]2(C)[C@@H]1C(O)C[C@H]1[C@@]3(C)CCC(OC4OC(CO)C(O)C(O)C4O)C(C)(C)[C@@H]3CC[C@]12C (stereo partly drawn)"
label = "Yes"

[[record]]
compound = "CCC(C)C(=O)OC1CC(C)C=C2C=CC(C)C(CCC3CC(O)CC(=O)O3)[C@H]21 (stereo partly drawn)"
label = "No"

[[record]]
compound = "Cc1[nH]c(C=C2C(=O)Nc3ccccc32)c(C)c1CCC(=O)O"
label = "Yes"

[[record]]
compound = "O=c1cc(-c2ccncc2)nc(-c2cccc(CN3CCCC(CO)C3)c2)[nH]1 (stereo not drawn)"
label = "Yes"

[[record]]
compound = "CCC(C)[C@H]1O[C@]2(CCC1C)CC1C[C@@H](CC=C(C)C(O[C@H]3CC(OC)C(O[C@H]4CC(OC)C(O)C(C)O4)C(C)O3)C(C)C=CC=C3CO[C@@H]4C(O)C(C)=C[C@H](C(=O)O1)[C@]34O)O2 (stereo partly drawn)"
label = "Yes"

[[record]]
compound = "CCn1cnc(NC(=O)N(C)Cc2cccc3ncccc23)n1"
label = "No"

[[record]]
compound = "Cc1cc(CS(=O)(=O)c2ccccc2)cc(OCc2ccc(CN3CCCC3CO)cc2)c1 (stereo not drawn)"
label = "Yes"

[[record]]
compound = "COc1c(C)c2c(c(O)c1CC=C(C)CCC(=O)O)C(=O)OC2"
label = "Yes"

[[record]]
compound = "Cc1ccc(NC(=O)c2ccc3nccnc3c2)cn1"
label = "No"

[[record]]
compound = "CON=C(C(=O)NC1C(=O)N2C(C(=O)OCOC(=O)C(C)(C)C)=C(C=Cc3scnc3C)CS[C@H]12)c1csc(N)n1 (stereo partly drawn)"
label = "Yes"

